- study.system: T1, soluble human GPNMB (recombinant extracellular domain) (human, UniProt Q14956 23-498)
- T1 construct: also called huGPNMB; recombinant human GPNMB extracellular domain; not shown: C-terminal polyhistidine or Avi-His tag
- T1 sequence: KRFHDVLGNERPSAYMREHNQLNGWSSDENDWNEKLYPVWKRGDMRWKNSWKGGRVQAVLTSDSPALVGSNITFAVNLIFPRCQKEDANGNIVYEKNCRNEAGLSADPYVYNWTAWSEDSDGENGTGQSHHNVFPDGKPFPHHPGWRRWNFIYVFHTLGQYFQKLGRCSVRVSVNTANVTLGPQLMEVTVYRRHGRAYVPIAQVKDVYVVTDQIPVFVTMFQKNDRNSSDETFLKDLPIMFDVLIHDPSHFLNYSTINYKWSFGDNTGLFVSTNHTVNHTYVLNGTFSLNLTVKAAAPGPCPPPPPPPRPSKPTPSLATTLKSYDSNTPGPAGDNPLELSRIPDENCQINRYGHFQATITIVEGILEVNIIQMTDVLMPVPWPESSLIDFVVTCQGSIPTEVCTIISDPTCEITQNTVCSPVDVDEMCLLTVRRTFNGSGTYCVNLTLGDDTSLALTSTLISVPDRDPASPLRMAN
- assay: SPR Carterra, Ab immobilized
# Lookup of reported pKd keyed by entry
// pKd is dimensionless: -log10 of concentration (M)

The following binders have reported results that may help.
anti-GPNMB antibody GPN-03 (antibody, human IgG1, V domains shown, chimeric) VH: QVQLQQSGPELVKPGASVKLSCKASGYTFTNYYMYWVKQRPGQGLEWIGEINPRNGGTNFNEKFKSKATLTVDKSSSTAYMQLSSLTFEDSAVYYCTTGLAYWGQGTLVTVSA VL: DVVMTQTPLSLPVSLGDQASISCRSSQSLVHSDGNTYLHWYLQKPGQSPKLLIYKVSTRFSGVPDRFSGSGSGTDFTLKISRVEAEDLGVYFCSQSTHVPWTFGGGTKLEIK :: 7.53
anti-GPNMB antibody GPN-07 (antibody, human IgG1, V domains shown, chimeric) VH: QVQLQQSGAEQVKPGASVKLSCKASGYTFTSYYMYWVKQRPGQGLEWIGEINPSNGGTYFNEKFKSKATLTVDKSSSTAYMHLSSLTSEDSAVYYCTRGGTYYAYWGQGTLVTVSA VL: DIQMTQSPSSLSASLGERVSLTCRASQEMSGHLSWLQQKPDGTIKRLIYAASTLDSGVPKRFSGSRSGSDYSLTISSLESEDFADYYCLQYASYPYTFGGGTKLEIK :: 7.78
anti-GPNMB antibody GPN-35 (antibody, human IgG1, V domains shown, chimeric) VH: EVQLVESGGGSVRPGRSLKLSCAAAGFTFSDYYMTWVRQAPTKGLEWVASINHDGGGTYYRDSVKGRFTISRDNARSSLYLQMDSLRSEDTGTYYCTTRAGWHWGQGVMVTVSS VL: DIQMTQSPASLSASLGETVSIECLASEDIYNYLTWYQQKPGKSPQVLIYSASGLQDGVPSRFSGSGSGRQYSLKINGLESEDAATYFCLQDSEYPLTFGSGTKLEIK :: 7.68

input: I'd like to know its pKd. The binder in question is anti-GPNMB antibody GPN-01 (antibody, human IgG1, V domains shown, chimeric) VH: QVQLQQSGAELAKPGASVKLSCKASGYNFTNYCIHWVKQRPGQGLEWIGYINPSTGYTEYNQKFKDKATLTADKSSTTAYMQLSSLTSEDSAVYYCARGRYDEFTYWGQGTLVTVSA VL: DIVLTQSPASLAVSLGQRATISCRASKSVSTSTYSYMHWYQQKPGQPPKLLIYLASNLESGVPARFSGSGSGTDFTLNIHPVEEEDAATYYCQHSRELPPTFGGGTKLEIK
output: 7.37

input: Note, next up: anti-GPNMB antibody GPN-30 (antibody, human IgG1, V domains shown, chimeric) VH: EVQLQQSGPELVNPGASVRISCKASGYSFTGYYMNWVKQSPEKSLEWIGEINPNTGFTTYNQNFKAKATLTVDKSSSTAYIQLKSLTSEDSAVYYCTRPSPSFDYWGQGTTLTVSS VL: DIQMTQSPSSLSASLGERGSLTCRASQEISGHLSWLQQKPDGTIKRLIYAASTLDSGVPKRFSGSRSGSDYSLTISSLESEDFADYYCLQYASYPYTFGGGTKLEIK
output: 8.30

input: And for anti-GPNMB antibody GPN-11 (antibody, human IgG1, V domains shown, chimeric) VH: QVQLQQPGAELVKPGASVKLSCKASGYTFTSYWMHWVKQRPGQGLEWIGEINSSNGRTNYNEKFKTKATLTVDRSSSTAYMQLSSLTSEDSAVYYCARLGYYSGSPYPYYAMDCWGQGTSVTVSS VL: DIQMTQSPASLSVSVGETVTITCRASENIYSNLAWYQQKQGKSPQLLVYAATNLADGVPSRFSGSGSGTQYSLKINSLQSEDFGSYYCQHFWNTPPTFGGGTKLEIK ?
output: 7.84

input: Next up: anti-GPNMB antibody GPN-37 (antibody, human IgG1, V domains shown, chimeric) VH: EVQLVESGGGLVQPGRSLKLSCAASGFTFSSKSGMAWVRQAPTKGLEWVASISNGGGDTYYRDSVKGRFTISRDNAKNTQYLQMDSLRPEDTATYYCARHRDYGYDAYFDYWGQGVMVTVSS VL: DIQMTQSPASLSASLGETVTIECLASEDIYSSLAWYQQKPGKSPQLLIYDASSLQDGVPSRFSGSESGTQYSLEINSLQSEDAATYFCQQHHDYPYTFGAGTKLELK
output: 9.00

input: // same read-out, input: anti-GPNMB antibody GPN-43 (antibody, human IgG1, V domains shown, chimeric) VH: EVQLQQSGPELVKPGASVKISCKASGYTFTDYYMNWVRQSHGKSLEWIGDINPYHGGSTYNQKIKVKATLTVDKSSSTAYMELRSLTSEDSAVYYCARNWPYFDYWGQGTTLTVSS VL: DIQMTQSPASLSASVGETVTITCRASENIYSFLVWYQQKQGKSPQLLVYNAKTLAEGVPSRFSGSGSGTQFSLKISSLQPEDFGSYYCQHHFGTPPYTFGGGTKLEIK
output: 6.95

input: Now give it for anti-GPNMB antibody GPN-09 (antibody, human IgG1, V domains shown, chimeric) VH: QVQLQQSGAELVKPGASVKLSCKASGYTFTSYYIYWVKQRPGQGLEWIGEINPSNGGTYFNEKFKNKATLTVDKSSSTAYMQLSSLTSEDSAVYYCTRGGNYYAYWGQGTLVTVSA VL: DIQMTQSPSSLSASLGERVSLTCRASQEISGHLGWLQQKPDGTIKRLIYAALTLDSGVPKRFSGSRSGSDYSLTISSLESEDFADYYCLQYASYPYTFGGGTKLEIK too.
output: 8.05

input: And what about the binder anti-GPNMB antibody GPN-34 (antibody, human IgG1, V domains shown, chimeric) VH: EVKLVESGGGLVQPGRSLKLSCAASGFNFYDYWMGWVRQAPGKGLEWIGEINKDSRTINYTPFLKDRFTISRDNAQNTLYLQMSKLGSEDTAIYYCAREGRVPFDYWGQGVMVTVSS VL: DIQMTQSPSSMSVSLGDTVTIPCRASQDVGSYVNWFQQKPGKSPRHMIYRATNLADGVPSRFSGSRSGADYSLTISSLESEDVADYHCQQYAEYPLTFGSGTKLEIK ?
output: 9.40

input: Proceed to anti-GPNMB antibody GPN-38 (antibody, human IgG1, V domains shown, chimeric) VH: QVQLQQPGAELVRPGTSVRLSCKASGYTFTSYWIHWVKQRPGRGLEWIGVIDPSDSYTNYNQQFNVKATLTVDTSSSAAYMQLSSLTSEDSAVYYCARGLITAVNWYFDVWGTGTTVTVSS VL: DIQMTQSPASLSTSVGEIVTITCRASENIYSYLTWYQQKQGKSPQLLVYNAKTLAEGVPSRFSGSGSGTQFSLKINSLQPEDFGTYYCQHHYGTPLTFGSGTKLEIK
output: 8.31
